Experiment: MTT cytotoxicity against raw macrophages
Type: cell-based, albino rats
Conditions: albino, rat, primary peritoneal macrophages, mean ± SEM, n = 3
Description: The % cell viability of the synthetic library was evaluated in vitro by measuring the mitochondrial dehydrogenase activity (MTT test) on raw macrophages. The cytotoxic potential was assessed by using an MTT 3-(4,5-dimethyl thiazole-2-yl)-2,5- diphenyl tetrazolium bromide assay. […] The formazan crystals were then solubilized in 100 µL DMSO, and the absorbance was measured at 570 nm. […]
For each record, check the reported IC50 at 24 h: if it is below 30 µM write rule met, else write rule not met.

compound: CC(=O)N(CN1CCCc2ccccc21)c1ccc(O)cc1
group.label: rule not met

compound: c1ccc2c(c1)CCCN2CN1CCCCC1
group.label: rule met

compound: CCN(CC)CN1CCCc2ccccc21
group.label: rule met

compound: COc1cccc2c1C(=O)c1c(O)c3c(c(O)c1C2=O)C[C@@](O)(C(=O)CO)C[C@@H]3O[C@H]1C[C@H](N)[C@H](O)[C@H](C)O1 [Doxorubicin, reference compound]
group.label: rule met

compound: c1ccc2c(c1)CCCN2CN1CCNCC1
group.label: rule met

[ask] Please check: IC50 at 24 h for CN1CCN(CN2CCCc3ccccc32)CC1 , strictly under 30 µM or not?
[reply] rule met

[ask] Please check: IC50 at 24 h for COc1ccc(NCN2CCCc3ccccc32)cc1 , strictly under 30 µM or not?
[reply] rule not met
